System: PC-3 cells
assay_remarks: modified MTT method, proliferation of PC-3 cells
Assay type: cell-based
test_parameters: Homo sapiens, PC-3, 72 h, Batch 1, 72 h; read-out: IC50 on the growth of PC-3 cells
reported_metric: IC50 (µM)

[A] C[C@H]1[C@@H](O)O[C@@H]2O[C@@]3(C)CC[C@H]4[C@H](C)CC[C@@H]1[C@@]24OO3 [dihydroartemisinin]
[B] COc1cccc2c1C(=O)c1c(O)c3c(c(O)c1C2=O)C[C@@](O)(C(=O)CO)C[C@@H]3O[C@H]1C[C@H](N)[C@H](O)[C@H](C)O1
Req: Could you check which of A and B has a smaller value for IC50? Provide the label of your selected option as the answer.
Resp: B
(B: 3.16 µM, A: 230 µM)

====

Form field: IC50 (one value per entry).
Test system: Hep2 cells
assay_remarks: modified MTT method, proliferation of Hep2 cells
Type: cell-based
test_parameters: Homo sapiens, HEp-2, 72 h, secondary screening, Batch 3, read-out: IC50 on the growth of Hep2 cells (72 h)
The reply should contain only the number, in µM.

Below: 2 compounds and their reported IC50.
C[C@H]1[C@@H](O)O[C@@H]2O[C@@]3(C)CC[C@H]4[C@H](C)CC[C@@H]1[C@@]24OO3 [dihydroartemisinin]; 126
C[C@H]1[C@H](OC(=O)CCC(=O)O)O[C@@H]2O[C@@]3(C)CC[C@H]4[C@H](C)CC[C@@H]1[C@@]24OO3 [artesunate]; 212

Here's the next entry for you.
Req: Could you share which IC50 value was measured for COc1cccc2c1C(=O)c1c(O)c3c(c(O)c1C2=O)C[C@@](O)(C(=O)CO)C[C@@H]3O[C@H]1C[C@H](N)[C@H](O)[C@H](C)O1 [ADM, adriamycin] ?
Resp: 1

====

Test system: HT-29 cells
assay_remarks: modified MTT method, proliferation of HT-29 cells
Format: cell-based
test_parameters: Homo sapiens, HT-29, 72 h, preliminary screening, Batch 2, 72 h; read-out: IC50 on the growth of HT-29 cells
pIC50: −log10 of the molar value.
reported_metric: pIC50

C[C@H]1[C@H](OC(=O)CCC(=O)O)O[C@@H]2O[C@@]3(C)CC[C@H]4[C@H](C)CC[C@@H]1[C@@]24OO3 [artesunate]; 3.36
COc1cccc2c1C(=O)c1c(O)c3c(c(O)c1C2=O)C[C@@](O)(C(=O)CO)C[C@@H]3O[C@H]1C[C@H](N)[C@H](O)[C@H](C)O1 [ADM, adriamycin]; 6.96

[A] CO[C@H]1O[C@@H]2O[C@@]3(C)CC[C@H]4[C@H](C)CC[C@@H]([C@H]1C)[C@@]24OO3 [artemether drug substance]
[B] C[C@H]1[C@@H](O)O[C@@H]2O[C@@]3(C)CC[C@H]4[C@H](C)CC[C@@H]1[C@@]24OO3 [dihydroartemisinin]
Req: Sort A and B by pIC50 descending and give the first. Provide the label of your selected option as the answer.
Resp: B

====

Test system: K562 cells
assay_remarks: modified MTT method, proliferation of K562 cells
Assay type: cell-based
test_parameters: Homo sapiens, K562, 24 h, Batch 1, 24 h; read-out: IC50 on the growth of K562 cells
Form field: IC50 (one value per entry).

COc1cccc2c1C(=O)c1c(O)c3c(c(O)c1C2=O)C[C@@](O)(C(=O)CO)C[C@@H]3O[C@H]1C[C@H](N)[C@H](O)[C@H](C)O1; 7.09 µM
C[C@H]1[C@@H](O)O[C@@H]2O[C@@]3(C)CC[C@H]4[C@H](C)CC[C@@H]1[C@@]24OO3 [dihydroartemisinin]; > 1000 µM
C[C@@H]1CC[C@H]2[C@@H](C)C(=O)O[C@@H]3O[C@@]4(C)CC[C@@H]1[C@]32OO4; > 1000 µM

Req: Could you share which IC50 value was measured for "CO[C@H]1O[C@@H]2O[C@@]3(C)CC[C@H]4[C@H](C)CC[C@@H]([C@H]1C)[C@@]24OO3" ?
Resp: > 1000 µM

Req: Could you share which IC50 value was measured for C[C@H]1[C@H](OC(=O)CCC(=O)O)O[C@@H]2O[C@@]3(C)CC[C@H]4[C@H](C)CC[C@@H]1[C@@]24OO3 [artesunate] ?
Resp: > 1000 µM

Hey, just so you know, these numbers are from patent EP2926811A1.
